Where do these numbers come from? They come from paper PMC7932521.

- measuredTarget: Opioid mu (Homo sapiens, UniProt P35372)
- Sequence (P35372 whole entry): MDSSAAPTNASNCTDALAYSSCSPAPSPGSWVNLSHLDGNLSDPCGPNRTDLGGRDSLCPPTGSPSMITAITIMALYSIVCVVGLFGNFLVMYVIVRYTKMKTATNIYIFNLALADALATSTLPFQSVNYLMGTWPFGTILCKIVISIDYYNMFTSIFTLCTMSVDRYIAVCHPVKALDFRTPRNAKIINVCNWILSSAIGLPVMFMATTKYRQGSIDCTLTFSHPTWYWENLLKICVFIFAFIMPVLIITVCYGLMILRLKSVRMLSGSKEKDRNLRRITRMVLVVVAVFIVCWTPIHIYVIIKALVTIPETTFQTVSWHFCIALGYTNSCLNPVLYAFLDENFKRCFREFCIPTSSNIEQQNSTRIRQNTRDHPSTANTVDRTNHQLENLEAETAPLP
- method: Bioprofiling 6pt Antag Opioid mu CHO
- conditionInfo: antagonist readout vs DAMGO
IC50 by entry:

These recorded examples may help you get a feel for the data.
Which IC50 value belongs to N#Cc1ccc2nc(NC(=O)c3ccnc(C(F)(F)F)c3)n(CC(F)(F)F)c2c1 [Compound 44] ?
> 10 µM

Which IC50 value belongs to Cn1nc(C(F)(F)F)cc1C(=O)Nc1nc2ccc(C#N)cc2n1CC(F)(F)F [Compound 39] ?
> 10 µM

More entries:
Which IC50 value belongs to Cn1nccc1C(=O)Nc1nc2ccc(C#N)cc2n1CC(F)(F)F [Compound 30] ?
> 10 µM

###

- measuredTarget: Cav1.2 (L-type) (Mus musculus)
- Sequence (Q01815 whole entry): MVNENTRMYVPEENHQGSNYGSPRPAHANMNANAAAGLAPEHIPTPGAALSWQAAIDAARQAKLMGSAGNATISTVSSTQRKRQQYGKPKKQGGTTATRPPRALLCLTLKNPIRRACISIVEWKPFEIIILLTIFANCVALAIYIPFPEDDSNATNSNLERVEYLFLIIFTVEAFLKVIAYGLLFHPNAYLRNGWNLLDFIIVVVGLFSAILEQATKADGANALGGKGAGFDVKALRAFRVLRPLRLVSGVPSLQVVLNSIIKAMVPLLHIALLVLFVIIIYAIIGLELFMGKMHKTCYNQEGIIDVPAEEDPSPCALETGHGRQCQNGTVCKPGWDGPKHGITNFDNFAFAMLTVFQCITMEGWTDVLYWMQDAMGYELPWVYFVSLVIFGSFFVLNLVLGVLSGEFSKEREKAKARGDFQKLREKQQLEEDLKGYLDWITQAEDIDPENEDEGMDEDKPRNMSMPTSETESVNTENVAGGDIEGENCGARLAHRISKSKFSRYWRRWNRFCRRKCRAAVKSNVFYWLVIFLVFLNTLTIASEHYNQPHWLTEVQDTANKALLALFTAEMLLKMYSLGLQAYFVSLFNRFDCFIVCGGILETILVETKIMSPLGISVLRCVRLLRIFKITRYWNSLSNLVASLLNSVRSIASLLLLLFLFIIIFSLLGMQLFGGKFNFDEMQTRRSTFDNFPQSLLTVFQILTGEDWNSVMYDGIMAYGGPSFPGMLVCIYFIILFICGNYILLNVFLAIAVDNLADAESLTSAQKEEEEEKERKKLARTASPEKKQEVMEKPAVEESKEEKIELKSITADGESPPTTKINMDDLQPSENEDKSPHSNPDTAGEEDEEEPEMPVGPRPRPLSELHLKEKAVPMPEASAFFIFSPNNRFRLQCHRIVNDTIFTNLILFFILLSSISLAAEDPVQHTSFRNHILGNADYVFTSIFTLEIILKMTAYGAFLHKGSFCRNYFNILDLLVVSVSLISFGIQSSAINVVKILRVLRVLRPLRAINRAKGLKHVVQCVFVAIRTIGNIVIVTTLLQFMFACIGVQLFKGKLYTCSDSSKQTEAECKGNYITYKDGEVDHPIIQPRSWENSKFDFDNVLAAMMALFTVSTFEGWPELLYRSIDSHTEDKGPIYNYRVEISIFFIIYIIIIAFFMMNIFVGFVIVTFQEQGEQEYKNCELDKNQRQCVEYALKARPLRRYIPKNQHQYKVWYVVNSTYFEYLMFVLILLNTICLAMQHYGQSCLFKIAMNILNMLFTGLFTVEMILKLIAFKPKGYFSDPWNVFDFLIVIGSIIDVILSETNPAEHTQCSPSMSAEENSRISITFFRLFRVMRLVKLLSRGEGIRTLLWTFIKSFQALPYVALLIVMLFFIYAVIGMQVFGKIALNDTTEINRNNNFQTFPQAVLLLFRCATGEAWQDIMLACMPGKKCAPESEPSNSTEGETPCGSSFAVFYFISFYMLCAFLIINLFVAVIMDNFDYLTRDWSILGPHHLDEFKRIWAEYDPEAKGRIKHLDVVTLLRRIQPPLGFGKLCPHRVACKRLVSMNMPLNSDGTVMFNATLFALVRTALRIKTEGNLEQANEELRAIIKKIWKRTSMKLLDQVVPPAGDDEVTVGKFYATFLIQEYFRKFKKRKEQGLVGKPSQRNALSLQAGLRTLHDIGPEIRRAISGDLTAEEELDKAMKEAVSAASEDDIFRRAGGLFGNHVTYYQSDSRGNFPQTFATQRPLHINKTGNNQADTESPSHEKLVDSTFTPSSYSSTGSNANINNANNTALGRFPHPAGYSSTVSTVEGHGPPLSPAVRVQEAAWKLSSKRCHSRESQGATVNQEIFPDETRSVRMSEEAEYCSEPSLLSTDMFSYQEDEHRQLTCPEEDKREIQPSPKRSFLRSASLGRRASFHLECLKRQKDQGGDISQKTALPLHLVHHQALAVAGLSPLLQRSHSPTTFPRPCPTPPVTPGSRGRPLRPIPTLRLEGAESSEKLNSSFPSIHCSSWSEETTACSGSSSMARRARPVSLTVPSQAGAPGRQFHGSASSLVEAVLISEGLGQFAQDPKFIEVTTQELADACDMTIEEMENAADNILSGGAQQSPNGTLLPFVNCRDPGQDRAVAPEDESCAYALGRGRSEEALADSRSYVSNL
- method: Bioprofiling 6pt Ag Cav1.2 (L-type) ND7/23
- Assay type: cell-based
- conditionInfo: mouse/rat, ND7/23 cells; agonist readout
EC50 by entry:

These recorded examples may help you get a feel for the data.
Which EC50 value belongs to `Cn1nc(C(F)(F)F)cc1C(=O)Nc1nc2ccc(C#N)cc2n1CC(F)(F)F` ?
> 10 µM

Which EC50 value belongs to `Cn1nccc1C(=O)Nc1nc2ccc(C#N)cc2n1CC(F)(F)F` ?
> 10 µM

Which EC50 value belongs to `N#Cc1ccc2nc(NC(=O)c3ccc(C(F)(F)F)nc3)n(CC(F)(F)F)c2c1` ?
> 10 µM

Which EC50 value belongs to `COc1ccc(C(=O)Nc2nc3ccc(C#N)cc3n2CC(F)(F)F)cn1` ?
> 10 µM

More entries:
Which EC50 value belongs to `N#Cc1ccc2nc(NC(=O)c3ccnc(C(F)(F)F)c3)n(CC(F)(F)F)c2c1` ?
> 10 µM

Which EC50 value belongs to `Cn1nccc1C(=O)Nc1nc2ccc(C#N)cc2n1CC(C)(C)C` ?
> 10 µM

###

- method: Mouse single-dose pharmacokinetics
- Format: in vivo
- conditionInfo: female, BALB/c, plasma, single oral dose 50 mg/kg
measuredAttribute: bioavailability (%)
Supply the numeric figure in %, leaving out any unit text.

Which bioavailability value belongs to `Cn1nccc1C(=O)Nc1nc2ccc(C#N)cc2n1CC(C)(C)C` ?
37

###

eLogD by entry:
- method: Experimental distribution coefficient (eLogD)
- Type: physicochemical
- conditionInfo: S1 Data
- Description: To determine the lipophilicity of the compounds, a methodology based on the retention time of molecules in reverse stationary phase (Ascentis RP-Amide HPLC column) was used. The chromatogram was obtained using LC-MS/MS. Test compounds were prepared at 1.0 μg/mL by adding the stock solution at (1:1) mobile phases A:B + internal standard at 200nM (A: 5% methanol in 10mM ammonium acetate pH 7.4, B: 100% methanol), DMSO concentration must be lower than 2%. […]
Simply state the number, no unit and no words.

Which eLogD value belongs to `Cn1nccc1C(=O)Nc1nc2ccc(C#N)cc2n1CC(C)(C)C` ?
3.39

Which eLogD value belongs to `Cn1nc(C(F)(F)F)cc1C(=O)Nc1nc2ccc(C#N)cc2n1CC(F)(F)F` ?
3.01

Which eLogD value belongs to `Cn1nccc1C(=O)Nc1nc2ccc(C#N)cc2n1CC(F)(F)F` ?
2.70

More entries:
Which eLogD value belongs to `N#Cc1ccc2nc(NC(=O)c3ccnc(C(F)(F)F)c3)n(CC(F)(F)F)c2c1` ?
3.12

###

pIC50: −log10 of the molar value.
PDE3A (Homo sapiens) pIC50 data
Sequence (Q14432 whole entry): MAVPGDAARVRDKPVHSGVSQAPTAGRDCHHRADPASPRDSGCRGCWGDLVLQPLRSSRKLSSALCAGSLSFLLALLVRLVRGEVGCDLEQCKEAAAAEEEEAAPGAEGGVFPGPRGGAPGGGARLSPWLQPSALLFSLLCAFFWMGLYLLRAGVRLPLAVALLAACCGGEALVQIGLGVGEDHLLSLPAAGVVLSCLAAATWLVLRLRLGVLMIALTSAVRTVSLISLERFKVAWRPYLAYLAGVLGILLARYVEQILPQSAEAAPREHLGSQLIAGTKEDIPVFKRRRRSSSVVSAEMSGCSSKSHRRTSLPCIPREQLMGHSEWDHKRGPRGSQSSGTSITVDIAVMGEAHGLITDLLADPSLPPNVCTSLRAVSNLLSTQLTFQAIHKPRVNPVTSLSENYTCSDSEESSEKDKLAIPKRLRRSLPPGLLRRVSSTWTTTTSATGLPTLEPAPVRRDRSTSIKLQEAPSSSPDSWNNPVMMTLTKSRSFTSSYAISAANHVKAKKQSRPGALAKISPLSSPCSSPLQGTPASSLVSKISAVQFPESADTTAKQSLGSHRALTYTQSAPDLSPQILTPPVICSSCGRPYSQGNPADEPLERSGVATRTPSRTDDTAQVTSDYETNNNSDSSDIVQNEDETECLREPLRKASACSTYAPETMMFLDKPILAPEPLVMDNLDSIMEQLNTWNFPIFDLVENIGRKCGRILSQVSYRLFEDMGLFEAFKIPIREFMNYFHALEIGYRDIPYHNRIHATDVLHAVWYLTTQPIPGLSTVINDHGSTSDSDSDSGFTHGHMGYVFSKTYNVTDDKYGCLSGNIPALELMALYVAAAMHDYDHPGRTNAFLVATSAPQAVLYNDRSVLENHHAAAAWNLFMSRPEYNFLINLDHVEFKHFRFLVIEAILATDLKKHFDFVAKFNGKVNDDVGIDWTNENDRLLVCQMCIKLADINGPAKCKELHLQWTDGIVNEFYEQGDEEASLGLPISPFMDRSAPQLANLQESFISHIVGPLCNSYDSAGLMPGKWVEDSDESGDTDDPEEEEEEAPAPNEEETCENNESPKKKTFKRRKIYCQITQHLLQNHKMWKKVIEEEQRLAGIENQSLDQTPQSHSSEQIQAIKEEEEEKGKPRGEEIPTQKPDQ

These recorded examples may help you get a feel for the data.
Param readout= pIC50; system= PDE3A (Homo sapiens); entry= `COc1ccc(C(=O)Nc2nc3ccc(C#N)cc3n2CC(F)(F)F)cn1` ; returns value.
< 5.00

Param readout= pIC50; system= PDE3A (Homo sapiens); entry= `Cn1nccc1C(=O)Nc1nc2ccc(C#N)cc2n1CC(F)(F)F` ; returns value.
< 5.00

Param readout= pIC50; system= PDE3A (Homo sapiens); entry= `Cn1nc(C(F)(F)F)cc1C(=O)Nc1nc2ccc(C#N)cc2n1CC(F)(F)F` ; returns value.
5.48

Param readout= pIC50; system= PDE3A (Homo sapiens); entry= `N#Cc1ccc2nc(NC(=O)c3ccnc(C(F)(F)F)c3)n(CC(F)(F)F)c2c1` ; returns value.
5.57

More entries:
Param readout= pIC50; system= PDE3A (Homo sapiens); entry= `N#Cc1ccc2nc(NC(=O)c3ccc(C(F)(F)F)nc3)n(CC(F)(F)F)c2c1` ; returns value.
< 5.00

Param readout= pIC50; system= PDE3A (Homo sapiens); entry= `Cn1nccc1C(=O)Nc1nc2ccc(C#N)cc2n1CC(C)(C)C` ; returns value.
< 5.00

###

- measuredTarget: UniProtKB P35367
- Sequence (P35367 whole entry): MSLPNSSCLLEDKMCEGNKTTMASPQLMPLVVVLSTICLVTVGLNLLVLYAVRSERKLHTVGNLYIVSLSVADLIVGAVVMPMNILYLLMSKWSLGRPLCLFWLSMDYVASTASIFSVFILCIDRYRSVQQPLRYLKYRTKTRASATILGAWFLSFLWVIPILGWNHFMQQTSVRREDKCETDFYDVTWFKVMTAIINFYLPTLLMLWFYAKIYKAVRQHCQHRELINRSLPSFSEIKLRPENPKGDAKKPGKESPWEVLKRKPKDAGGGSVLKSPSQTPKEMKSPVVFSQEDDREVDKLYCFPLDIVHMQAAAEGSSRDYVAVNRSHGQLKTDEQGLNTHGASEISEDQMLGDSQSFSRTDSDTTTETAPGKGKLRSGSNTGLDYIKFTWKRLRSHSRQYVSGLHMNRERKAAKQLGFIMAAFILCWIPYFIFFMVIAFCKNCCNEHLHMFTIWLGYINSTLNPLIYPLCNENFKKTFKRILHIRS
- method: Bioprofiling 6pt Antag H1 CHO
- conditionInfo: antagonist readout vs Histamine
measuredAttribute: IC50

Which IC50 value belongs to `Cn1nccc1C(=O)Nc1nc2ccc(C#N)cc2n1CC(C)(C)C` ?
> 10 µM

Which IC50 value belongs to `N#Cc1ccc2nc(NC(=O)c3ccnc(C(F)(F)F)c3)n(CC(F)(F)F)c2c1` ?
> 10 µM

Which IC50 value belongs to `Cn1nc(C(F)(F)F)cc1C(=O)Nc1nc2ccc(C#N)cc2n1CC(F)(F)F` ?
> 10 µM

###

- method: Mouse single-dose pharmacokinetics
- Format: in vivo
- conditionInfo: female, BALB/c, plasma, single oral dose 10 mg/kg
measuredAttribute: Cmax (ng/mL)
Supply the numeric figure in ng/mL, leaving out any unit text.

Which Cmax value belongs to `Cn1nccc1C(=O)Nc1nc2ccc(C#N)cc2n1CC(C)(C)C` ?
1000

###

- measuredTarget: Opioid mu (Homo sapiens)
- method: Bioprofiling 6pt Ag Opioid mu CHO
- conditionInfo: agonist readout
pEC50: −log10 of the molar value.
pEC50 by entry:

Which pEC50 value belongs to COc1ccc(C(=O)Nc2nc3ccc(C#N)cc3n2CC(F)(F)F)cn1 [Compound 43] ?
< 5.00

Which pEC50 value belongs to N#Cc1ccc2nc(NC(=O)c3ccnc(C(F)(F)F)c3)n(CC(F)(F)F)c2c1 [Compound 44] ?
< 5.00

Which pEC50 value belongs to Cn1nc(C(F)(F)F)cc1C(=O)Nc1nc2ccc(C#N)cc2n1CC(F)(F)F [Compound 39] ?
< 5.00

Which pEC50 value belongs to Cn1nccc1C(=O)Nc1nc2ccc(C#N)cc2n1CC(C)(C)C [Compound 29] ?
< 5.00

Which pEC50 value belongs to Cn1nccc1C(=O)Nc1nc2ccc(C#N)cc2n1CC(F)(F)F [Compound 30] ?
< 5.00

As a next step, examine the compound that follows.
Which pEC50 value belongs to N#Cc1ccc2nc(NC(=O)c3ccc(C(F)(F)F)nc3)n(CC(F)(F)F)c2c1 [Compound 45] ?
< 5.00

###

- method: Mouse liver microsomal stability
- Format: in vitro ADME
- conditionInfo: CD1, mouse, liver microsomes, pH 7.4, mouse liver microsome intrinsic clearance; read-out: MLM Clint
- Experimental: The metabolic stability of the compounds was evaluated in human (pool of 200 donors, XenoTech) and mouse liver microsomes (CD1 mouse, GIBCO). […] Compounds were quantified by liquid chromatography triple quadrupole mass spectrometry (LC-MS/MS). […] Half-life (t1/2 = ln(2)/k) in minutes and intrinsic clearance (Clint = k x 1000/(0.25)) in μL/min/mg were calculated using a non-linear regression from % remaining versus incubation time. From this plot, the slope (k) was determined. […]
measuredAttribute: microsomal CLint at 0.5 μM (µL/min/mg)
Supply the numeric figure in µL/min/mg, leaving out any unit text.

These recorded examples may help you get a feel for the data.
Which microsomal CLint at 0.5 μM value belongs to `Cn1nccc1C(=O)Nc1nc2ccc(C#N)cc2n1CC(C)(C)C` ?
17

Which microsomal CLint at 0.5 μM value belongs to `Cn1nccc1C(=O)Nc1nc2ccc(C#N)cc2n1C1CCOCC1` ?
23

More entries:
Which microsomal CLint at 0.5 μM value belongs to `N#Cc1ccc2nc(NC(=O)Cc3ccc(F)cc3F)n(CC(F)(F)F)c2c1` ?
19.6

Which microsomal CLint at 0.5 μM value belongs to `CCCn1c(NC(=O)Cc2ccc(F)cc2)nc2ccc(C#N)cc21` ?
225

###

Papp at 5 h, 10 μM by entry:
- method: Parallel artificial membrane permeability assay (PAMPA)
- Format: in vitro ADME
- conditionInfo: passive permeability; read-out: PAMPA
- Description: To determine the passive permeability of the compounds, a 96-well plate containing membranes pre-coated with lipids (Corning Gentest # 353015) was used. The solutions of the compounds were prepared by diluting the stock solutions (10mM) in phosphate buffered saline (PBS) pH 6.5 at a final concentration of 10μM. […] The final concentrations of compounds in the donor, acceptor, and initial solution (T0) wells were analyzed using LC-MS/MS. […]
Supply the numeric figure in ×10⁻⁶ cm/s, leaving out any unit text.

These recorded examples may help you get a feel for the data.
Which Papp at 5 h, 10 μM value belongs to `N#Cc1ccc2nc(NC(=O)c3ccnc(C(F)(F)F)c3)n(CC(F)(F)F)c2c1` ?
2.3

Which Papp at 5 h, 10 μM value belongs to `Cn1nccc1C(=O)Nc1nc2ccc(C#N)cc2n1CC(C)(C)C` ?
4.7

Which Papp at 5 h, 10 μM value belongs to `CCCn1c(NC(=O)Cc2ccc(Cl)cc2)nc2ccccc21` ?
6.7

Which Papp at 5 h, 10 μM value belongs to `Cn1nccc1C(=O)Nc1nc2ccc(C#N)cc2n1CC(F)(F)F` ?
7.9

As a next step, examine the compound that follows.
Which Papp at 5 h, 10 μM value belongs to `Cn1nc(C(F)(F)F)cc1C(=O)Nc1nc2ccc(C#N)cc2n1CC(F)(F)F` ?
10
